System: Candida albicans
Conditions: 20 µM
Description: Antifungal activity against Candida albicans ATCC 90028 (CO-ADD:FG_001); MIC in YNB media using NBS plates, by OD630
Potency and affinity values are given separately.
measured.attribute: Inhibition (%)

compound=COc1ccc2c(c1)c1ccc3c(c1n2C)C(=O)C=CC3=O measured_attribute=Inhibition units=% observed_result=7
compound=O=c1nc2onnc2c(/C=N\O)[nH]1 measured_attribute=Inhibition units=% observed_result=-0.67
compound=CC(C)COc1nc2c(c(=O)n(C)c(=O)n2C)n1C measured_attribute=Inhibition units=% observed_result=2.67
compound=Oc1nc(S)ncc1Oc1ccc(Cl)cc1Cl measured_attribute=Inhibition units=% observed_result=6.27
compound="CC(=O)Oc1c(C)c(OC(C)=O)c2c(c1C(C)=O)OC1CC(=O)C(C(C)=O)=C(O)C21C (stereo unspecified)" measured_attribute=Inhibition units=% observed_result=3.77
compound="COc1c(O)ccc2c1CN1CCc3cc4c(cc3C1C2)OCO4 (stereo unspecified)" measured_attribute=Inhibition units=% observed_result=-2.64
compound=Cc1cccc(Nc2sc(C(=O)c3cc4cc(Cl)ccc4o3)c(N)c2C#N)c1 measured_attribute=Inhibition units=% observed_result=0.06
compound=Nc1ccc(C(=O)Nc2cccc(N)c2)cc1 measured_attribute=Inhibition units=% observed_result=0.06
compound=Cc1cc(O)c2c(O)[nH]nc2n1 measured_attribute=Inhibition units=% observed_result=-3.37
compound=CN(C)S(=O)(=O)c1ccc(N)c([N+](=O)[O-])c1 measured_attribute=Inhibition units=% observed_result=1.38
compound=CCOC(=O)N1CCc2cc(OC)c(OC)c3c2c1cc1cc(OC)c(OC)cc13 measured_attribute=Inhibition units=% observed_result=5.76
compound=Cc1ccn(C)c(=N)c1 measured_attribute=Inhibition units=% observed_result=2.59
compound=Nc1n[nH]c(-c2ccccc2)n1 measured_attribute=Inhibition units=% observed_result=-1.64
compound=CC1=Nc2ccccc2/C1=C\c1c(C)[nH]c2ccccc12 measured_attribute=Inhibition units=% observed_result=6.28
compound=Cc1c(CCO)c(=O)n2n1CCCC2 measured_attribute=Inhibition units=% observed_result=-0.03
compound=CC(C)=CCC/C(C)=C\C(N)=O measured_attribute=Inhibition units=% observed_result=-0.52
compound="Cc1ccn2c(C(C)O)nnc2c1 (stereo unspecified)" measured_attribute=Inhibition units=% observed_result=-1.79
compound=FC(F)(F)c1nc2nc(Cl)c(Cl)nc2n1CCCN1CCOCC1 measured_attribute=Inhibition units=% observed_result=5.42
compound=O=[N+]([O-])/C=C/c1cc2ccccc2[nH]1 measured_attribute=Inhibition units=% observed_result=46.8
compound=Clc1ccc(-c2nc(-c3cc4cc(Cl)ccc4o3)cs2)cc1 measured_attribute=Inhibition units=% observed_result=1.45
compound=Cn1ncc2c(Nc3ccccc3Cl)nc(Cl)nc21 measured_attribute=Inhibition units=% observed_result=7.2
